Tested on: PBMC
protocol: IFNg/IL-5 dual ELISPOT after 14 day in vitro stimulation of PBMC with Tau peptides
Type: cell-based, human
Where no end group is shown, it is not given here. [ ]: non-standard residue; d: D form. pS = N[C@@H](COP(=O)(O)O)C(=O)O
property: PD/HC > 50 Ratio of % Responders
Give bare numbers.

INSERT INTO measurements (sequenceentry, targetentity, observedresult) VALUES
  ('PMPDLKNVKSKIGSTE (PMPDLKNVKSKIG[pS]TE; listed as Homo sapiens) [Tau 16-mer, start 249]', 'PBMC', 1.7),
  ('LATLADEVSASLAKQG (listed as Homo sapiens) [Tau 16-mer, start 425]', 'PBMC', 0.3);

// for each sequence in input: emit PD/HC > 50 Ratio of % Responders
1. GKVQIINKKLDLSNVQ (listed as Homo sapiens) [Tau 16-mer, start 273]
2. HVTQARMVSKSKDGTG (listed as Homo sapiens)

2.5
5.0
